molecular target: Scrib PDZ-1 domain (Homo sapiens, UniProt Q14160); construct: ROC curves of DomPep prediction for the three Scrib PDZ-1/2/3 domains; assay: In-solution fluorescence polarization binding of peptides to Scrib PDZ1; conditions: Kd value of 100 µM applied as binding cutoff, NB without definition, read-out: Kd (µM) PDZ1
Sequence (Q14160 728-815 limits assumed): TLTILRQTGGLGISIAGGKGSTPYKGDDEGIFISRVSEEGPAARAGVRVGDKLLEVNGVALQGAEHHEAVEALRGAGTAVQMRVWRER
Residues, ends and D or L forms follow the SMILES beside them.
MEASUREMENT LABEL: Kd

Below, each entry is followed by its recorded Kd result.
CC(C)C[C@H](NC(=O)[C@H](C)NC(=O)[C@@H](NC(=O)[C@H](CO)NC(=O)[C@@H](N)CO)[C@@H](C)O)C(=O)N[C@@H](Cc1c[nH]cn1)C(=O)N[C@@H](CCC(N)=O)C(=O)N[C@@H](Cc1c[nH]cn1)C(=O)N[C@@H](Cc1c[nH]cn1)C(=O)N[C@@H](Cc1ccccc1)C(=O)O [LIMD1] (H-SSTALHQHHF-OH; N-terminus and C-terminus assumed) = > 100 µM
CC[C@H](C)[C@H](NC(=O)[C@@H]1CCCN1C(=O)[C@H](Cc1c[nH]cn1)NC(=O)[C@@H](NC(=O)[C@@H](N)Cc1ccccc1)C(C)C)C(=O)N[C@@H](CC(C)C)C(=O)N[C@@H](CCC(N)=O)C(=O)N[C@@H](CO)C(=O)N[C@@H](C)C(=O)N[C@H](C(=O)O)C(C)C [PRKCA] (H-FVHPILQSAV-OH) = 17.4 µM

Turning to the following compound.
Give the measured Kd of CC(C)[C@H](NC(=O)[C@H](CO)NC(=O)[C@@H](NC(=O)[C@@H](NC(=O)CNC(=O)[C@H](CCC(=O)O)NC(=O)[C@H](C)NC(=O)[C@H](CCCNC(=N)N)NC(=O)[C@H](CCC(=O)O)NC(=O)[C@@H](N)CS)[C@@H](C)O)C(C)C)C(=O)O [MUSK] (H-CERAEGTVSV-OH) .
> 100 µM

----------
target: Scrib PDZ-3 domain (Homo sapiens, UniProt Q14160); construct: ROC curves of DomPep prediction for the three Scrib PDZ-1/2/3 domains; test: In-solution fluorescence polarization binding of peptides to Scrib PDZ3; conditions: Kd value of 100 µM applied as binding cutoff, NB without definition
Sequence (Q14160 1004-1093 limits assumed): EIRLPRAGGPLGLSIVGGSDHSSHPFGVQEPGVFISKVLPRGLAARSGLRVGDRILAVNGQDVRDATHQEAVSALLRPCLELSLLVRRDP
Residues, ends and D or L forms follow the SMILES beside them.
Reported Kd values for the following compounds.

Below, each entry is followed by its recorded Kd result.
CC(C)C[C@H](NC(=O)[C@H](C)NC(=O)[C@@H](NC(=O)[C@H](CO)NC(=O)[C@@H](N)CO)[C@@H](C)O)C(=O)N[C@@H](Cc1c[nH]cn1)C(=O)N[C@@H](CCC(N)=O)C(=O)N[C@@H](Cc1c[nH]cn1)C(=O)N[C@@H](Cc1c[nH]cn1)C(=O)N[C@@H](Cc1ccccc1)C(=O)O [LIMD1] (H-SSTALHQHHF-OH; N-terminus and C-terminus assumed) = > 100 µM
CC(C)C[C@H](NC(=O)[C@@H](N)C(C)C)C(=O)N[C@@H](CCC(N)=O)C(=O)N[C@@H](CCCNC(=N)N)C(=O)N[C@@H](Cc1c[nH]cn1)C(=O)N[C@H](C(=O)N[C@H](C(=O)NCC(=O)N[C@@H](CCCCN)C(=O)N[C@@H](C)C(=O)O)[C@@H](C)O)[C@@H](C)O [ACBD6] (H-VLQRHTTGKA-OH; N-terminus and C-terminus assumed) = > 100 µM

Turning to the following compound.
Fill in the recorded Kd for this compound, with Scrib PDZ-3 domain (Homo sapiens, UniProt Q14160) as test system: CC[C@H](C)[C@H](NC(=O)[C@H](C)NC(=O)[C@H](CO)NC(=O)[C@H](CC(C)C)NC(=O)[C@H](CC(C)C)NC(=O)[C@@H](N)CCC(=O)O)C(=O)N[C@@H](CCC(=O)O)C(=O)N[C@@H](CCCCN)C(=O)N[C@@H](CC(C)C)C(=O)N[C@@H](CC(C)C)C(=O)O [UBXD1] (H-ELLSAIEKLL-OH; N-terminus and C-terminus assumed)
> 100 µM
